- MEASURED_ON: cGMP-specific 3',5'-cyclic phosphodiesterase (Bos taurus)
pIC50: −log10 of the molar value.
PARAMETER: pIC50

{"columns": ["MOLECULE", "PARAMETER", "VALUE"],
 "data": [
  ["CN1C(=O)c2c(nn(C)c2Cc2ccccc2)N2C1=N[C@@H]1CCC[C@@H]12 (racemic)", "pIC50", 6.85],
  ["Cc1n[nH]c2c1C(=O)N(C)C1=N[C@@H]3CCC[C@@H]3N12", "pIC50", 5.54],
  ["CN1C(=O)c2c(Cc3ccccc3)n[nH]c2N2C1=N[C@@H]1CCC[C@@H]12 (racemic)", "pIC50", 6.72],
  ["CN1C(=O)c2cnn(Cc3ccccc3)c2N2C1=N[C@@H]1CCC[C@@H]12 (racemic)", "pIC50", 5.51],
  ["CN1C(=O)c2c(Cc3ccccc3)nn(C)c2N2C1=N[C@@H]1CCC[C@@H]12 (racemic)", "pIC50", 6.40]
]}

a = CN1C(=O)c2c(nn(C)c2Cc2ccccc2)N2C1=N[C@@H]1CCC[C@@H]12
b = CN1C(=O)c2c(nn(Cc3ccccc3)c2-c2ccccc2)N2C1=N[C@@H]1CCC[C@@H]12
Between a and b , whose measured pIC50 reads higher? Identify your pick by its label.
a
(a: 7.00, b: 5.68)

---

Form field: Delta mmHg (one value per entry).
- Test system: Rattus norvegicus
- EXPERIMENT_NOTES: Antihypertensive activity in spontaneously hypertensive rats at 10 mg/kg administered orally
- Type: functional
- STATED_CONDITIONS: route oral
Note: the reply should be a number with no unit written.

Here is how some compounds turned out for Delta mmHg.
{"columns": ["STRUCTURE_STRING", "PARAMETER", "VALUE"],
 "data": [
  ["Cc1n[nH]c2c1C(=O)N(C)C1=N[C@@H]3CCC[C@@H]3N12", "Delta mmHg", -7],
  ["CN1C(=O)c2c(nn(C)c2Cc2ccccc2)N2CC3(CCCC3)N=C12", "Delta mmHg", -33],
  ["CN1C(=O)c2c(nn(Cc3ccccc3)c2-c2ccccc2)N2C1=N[C@@H]1CCC[C@@H]12", "Delta mmHg", 1],
  ["Cc1nn(Cc2ccccc2)c2c1C(=O)N(C)C1=N[C@@H]3CCC[C@@H]3N12", "Delta mmHg", -3]
]}

// next item, Delta mmHg requested
What measured Delta mmHg goes with Cc1nc2c(n1Cc1ccccc1)C(=O)N(C)C1=N[C@@H]3CCC[C@@H]3N12 ?
-28

---

- MEASURED_ON: 3',5'-cyclic-nucleotide phosphodiesterase (Bos taurus)
- Sequence (A0A3Q1M1E8 1-1126): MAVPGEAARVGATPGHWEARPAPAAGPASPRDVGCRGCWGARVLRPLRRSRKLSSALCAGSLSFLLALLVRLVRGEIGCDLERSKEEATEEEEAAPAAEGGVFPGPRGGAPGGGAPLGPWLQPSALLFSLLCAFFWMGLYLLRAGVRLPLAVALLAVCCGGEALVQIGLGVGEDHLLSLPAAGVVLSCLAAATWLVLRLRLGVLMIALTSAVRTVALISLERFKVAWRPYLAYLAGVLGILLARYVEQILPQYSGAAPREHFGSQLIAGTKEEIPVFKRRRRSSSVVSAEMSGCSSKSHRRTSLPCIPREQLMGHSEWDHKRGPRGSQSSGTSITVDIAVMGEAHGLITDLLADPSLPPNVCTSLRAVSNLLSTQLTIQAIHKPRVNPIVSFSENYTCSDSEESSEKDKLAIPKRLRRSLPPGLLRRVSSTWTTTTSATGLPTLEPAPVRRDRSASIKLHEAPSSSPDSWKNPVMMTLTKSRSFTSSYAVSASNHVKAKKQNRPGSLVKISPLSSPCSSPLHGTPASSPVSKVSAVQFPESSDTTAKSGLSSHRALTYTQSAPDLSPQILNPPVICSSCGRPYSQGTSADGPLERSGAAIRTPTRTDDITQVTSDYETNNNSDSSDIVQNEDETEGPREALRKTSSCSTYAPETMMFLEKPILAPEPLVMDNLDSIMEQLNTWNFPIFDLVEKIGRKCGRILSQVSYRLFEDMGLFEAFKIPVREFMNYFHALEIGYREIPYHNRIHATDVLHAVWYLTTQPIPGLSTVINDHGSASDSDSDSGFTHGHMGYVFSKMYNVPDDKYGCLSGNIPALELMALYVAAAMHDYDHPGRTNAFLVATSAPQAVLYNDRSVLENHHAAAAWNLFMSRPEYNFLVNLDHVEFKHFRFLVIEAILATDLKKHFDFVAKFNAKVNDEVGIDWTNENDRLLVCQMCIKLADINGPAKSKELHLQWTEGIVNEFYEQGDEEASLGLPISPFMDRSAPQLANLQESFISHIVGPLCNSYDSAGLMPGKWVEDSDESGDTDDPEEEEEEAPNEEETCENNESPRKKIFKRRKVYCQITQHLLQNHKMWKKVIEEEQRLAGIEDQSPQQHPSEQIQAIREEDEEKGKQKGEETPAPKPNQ
- EXPERIMENT_NOTES: Inhibition of Phosphodiesterase 3 from bovine heart
PARAMETER: IC50 (µM)

Here is how some compounds turned out for IC50.
{"columns": ["COMPOUND", "IC50 / µM"],
 "data": [
  ["Cc1nn(Cc2ccccc2)c2c1C(=O)N(C)C1=N[C@@H]3CCC[C@@H]3N12", 50],
  ["CN1C(=O)c2c(nn(C)c2Cc2ccccc2)N2CC(C)(C)N=C12", 42]
]}

A = CN1C(=O)c2c(nn(C)c2Cc2ccccc2)N2CC3(CCCC3)N=C12
B = CN1C(=O)c2c(Cc3ccccc3)nn(C)c2N2C1=N[C@@H]1CCC[C@@H]12 (racemic)
Between A and B , whose measured IC50 reads higher? Identify your pick by its label.
A

---

- MEASURED_ON: Phosphodiesterase 1 (Bos taurus, UniProt Q01061+P14100)
- EXPERIMENT_NOTES: Inhibition of phosphodiesterases PDE1 from bovine aorta
- Assay type: protein assay
PARAMETER: IC50 (nM)

Here is how some compounds turned out for IC50.
{"columns": ["COMPOUND", "VALUE"],
 "data": [
  ["Cc1n[nH]c2c1C(=O)N(C)C1=N[C@@H]3CCC[C@@H]3N12", 18000],
  ["CN1C(=O)c2c(nn(Cc3ccccc3)c2-c2ccccc2)N2C1=N[C@@H]1CCC[C@@H]12", 540],
  ["CN1C(=O)c2c(Cc3ccccc3)n[nH]c2N2C1=N[C@@H]1CCC[C@@H]12 (racemic)", 1100],
  ["CN1C(=O)c2cnn(Cc3ccccc3)c2N2C1=N[C@@H]1CCC[C@@H]12 (racemic)", 29000],
  ["CN1C(=O)c2c(nn(C)c2Cc2ccccc2)N2C1=N[C@@H]1CCC[C@@H]12 (racemic)", 160],
  ["Cc1nn(Cc2ccccc2)c2c1C(=O)N(C)C1=N[C@@H]3CCC[C@@H]3N12", 2000],
  ["CN1C(=O)c2c(nn(C)c2Cc2ccccc2)N2CC(C)(C)N=C12", 18],
  ["CN1C(=O)c2c(Cc3ccccc3)nn(C)c2N2C1=N[C@@H]1CCC[C@@H]12 (racemic)", 850],
  ["CN1C(=O)c2c(nn(C)c2Cc2ccccc2)N2CC3(CCCC3)N=C12", 60]
]}

1 = CC(C)[C@@H]1CN2C(=N1)N(C)C(=O)c1c2nn(C)c1Cc1ccccc1
2 = CN1C(=O)c2c(nn(C)c2Cc2ccccc2)N2C1=N[C@@H]1CCC[C@@H]12
Between 1 and 2 , whose measured IC50 reads higher? Identify your pick by its label.
2
